System: Nucleic Acid
experiment: Binding affinity to human telomeric AGGG(TTAGGG)3 quadruplex assessed as fluorescence quenching at 10 uM after 3 mins by fluorescence titration method
Format: nucleic-acid assay
property.measured: Kb (×10⁵ /M)

# annotated cases, reported Kb shown
## Task Request body: readout Kb, system Nucleic Acid, query `CN(C)CCN1C(=O)c2cc(NC(=O)CCN3CCCC3)cc3cc(NC(=O)CCN4CCCC4)cc(c23)C1=O` . Return the value.
## Result 6

## Task Give Nucleic Acid Kb for `O=C(CCN1CCCC1)Nc1cc2c3c(cc(NC(=O)CCN4CCCC4)cc3c1)C(=O)N(CCCN1CCN(C(=O)CCN3CCCC3)CC1)C2=O`
## Result 9

## Task Hello, I am looking for reported Kb with Nucleic Acid for `O=C(CCN1CCCC1)Nc1cc2c3c(cc(NC(=O)CCN4CCCC4)cc3c1)C(=O)N(CCN1CCCCC1)C2=O` . Could you help?
## Result 9

## Task // map `O=C(CCN1CCCC1)Nc1cc2c3c(cc(NC(=O)CCN4CCCC4)cc3c1)C(=O)N(CCCN1CCCCC1)C2=O` to recorded Kb (system: Nucleic Acid)
## Result 24

## Task Lab note: need Kb for `O=C(CCN1CCCC1)Nc1cc2c3c(cc(NC(=O)CCN4CCCC4)cc3c1)C(=O)N(CCCN1CCOCC1)C2=O` on Nucleic Acid, anyone have it?
## Result 10

(A) O=C(CCN1CCCC1)Nc1cc2c3c(cc(NC(=O)CCN4CCCC4)cc3c1)C(=O)N(CCCN1CCCC1)C2=O
(B) O=C(CCN1CCCC1)Nc1cc2c3c(cc(NC(=O)CCN4CCCC4)cc3c1)C(=O)N(CCN1CCN(C(=O)CCN3CCCC3)CC1)C2=O
(C) O=C(CCN1CCCC1)Nc1cc2c3c(cc(NC(=O)CCN4CCCC4)cc3c1)C(=O)N(CCN1CCCC1)C2=O
## Task Order the items by recorded Kb; the first position goes to the largest value. Answer format: the labels, ordered as requested.
## Result A, C, B
(A: 30 ×10⁵ /M, C: 12 ×10⁵ /M, B: 7 ×10⁵ /M)
